Cited source for all entries: patent US20230321246A1

# Test name: in vivo
# Condition context: male, beagle, dog, iv, 2 mg/kg
Endpoint: clearance (mL/min/kg)
Give the quantity in mL/min/kg, number only.

Reported clearance for CC(=O)O[C@H]1C(=O)[C@@]2(C)[C@H]([C@H](OC(=O)c3ccccc3)[C@]3(O)C[C@H](OC(=O)[C@H](O)[C@@H](NC(=O)c4ccccc4)c4ccccc4)C(C)=C1C3(C)C)[C@]1(OC(C)=O)CO[C@@H]1C[C@@H]2O was 44.3

====

# Test name: in vivo
# Condition context: male, beagle, dog, iv, 2 mg/kg
Endpoint: half-life (h)
Give the quantity in h, number only.

Reported half-life for CC(=O)O[C@H]1C(=O)[C@@]2(C)[C@H]([C@H](OC(=O)c3ccccc3)[C@]3(O)C[C@H](OC(=O)[C@H](O)[C@@H](NC(=O)c4ccccc4)c4ccccc4)C(C)=C1C3(C)C)[C@]1(OC(C)=O)CO[C@@H]1C[C@@H]2O was 7.57

====

# Test name: in vivo
# Condition context: male, beagle, dog, iv, 2 mg/kg
Endpoint: MRT last (h)
Give the quantity in h, number only.

Reported MRT last for CC(=O)O[C@H]1C(=O)[C@@]2(C)[C@H]([C@H](OC(=O)c3ccccc3)[C@]3(O)C[C@H](OC(=O)[C@H](O)[C@@H](NC(=O)c4ccccc4)c4ccccc4)C(C)=C1C3(C)C)[C@]1(OC(C)=O)CO[C@@H]1C[C@@H]2O was 5.26

====

# Test name: in vivo
# Condition context: male, beagle, dog, iv, 2 mg/kg
Endpoint: clearance (mL/min/kg)
Give the quantity in mL/min/kg, number only.

Reported clearance for CC(=O)O[C@H]1C(=O)[C@@]2(C)[C@H]([C@H](OC(=O)c3ccccc3)[C@]3(O)C[C@H](OC(=O)[C@H](O)[C@@H](NC(=O)c4ccccc4)c4ccccc4)C(C)=C1C3(C)C)[C@]1(OC(C)=O)CO[C@@H]1C[C@@H]2O was 19.3
